Target: GABA-A receptor; anion channel
Assay: In vitro inhibition of [35S]t-butyl-bicyclophosphorothionate (TBPS) binding to Gamma-aminobutyric acid A (GABA-A) receptor
Format: protein-complex assay, Rattus norvegicus
IC50 less than 2000 nM is 1; IC50 greater than or equal to 2000 nM is -1.

The following compounds have reported results that may help.
[
  {
    "COMPOUND": "Cn1c2ccccc2c2c(N)c3c(nc21)CCCC3",
    "SYSTEM": "GABA-A receptor; anion channel",
    "CATEGORY": -1
  },
  {
    "COMPOUND": "CC1CCc2nc3c(c(N)c2C1=O)c1c(n3C)CCCC1 (configuration not stated)",
    "SYSTEM": "GABA-A receptor; anion channel",
    "CATEGORY": -1
  },
  {
    "COMPOUND": "CC1CCc2nc3sc4c(c3c(N)c2C1=O)CCC4 (configuration not stated)",
    "SYSTEM": "GABA-A receptor; anion channel",
    "CATEGORY": 1
  },
  {
    "COMPOUND": "COC(=O)c1c(C)nc2c(c(C)c(C)n2C)c1N",
    "SYSTEM": "GABA-A receptor; anion channel",
    "CATEGORY": -1
  },
  {
    "COMPOUND": "Cn1c2ccccc2c2cc3c(nc21)CCCC3=O",
    "SYSTEM": "GABA-A receptor; anion channel",
    "CATEGORY": -1
  },
  {
    "COMPOUND": "CC1CCc2nc3sc4c(c3c(N)c2C1=O)CCCCC4 (configuration not stated)",
    "SYSTEM": "GABA-A receptor; anion channel",
    "CATEGORY": 1
  }
]

Ask: For this compound, is IC50 lower than 2000 nM? Nc1c2c(nc3sc4c(c13)CCCCC4)CCCC2=O
Reply: 1
